- MEASUREMENT DESCRIPTION: in vivo
- MEASUREMENT CONDITIONS: male, beagle, dog, in vivo, po, 0.75 mg/m2
ASSAY METRIC: Cmax (µg/mL)
The answer is to be given in µg/mL; state only the numeric part.

input: For CC(=O)Nc1cccc(-n2c(=O)n(C3CC3)c(=O)c3c(Nc4ccc(I)cc4F)n(C)c(=O)c(C)c32)c1 , write its Cmax.
output: 0.019

----------
- MEASUREMENT DESCRIPTION: FTIH study: single dose (Day 1) pharmacokinetics of Compound tablets
- Assay type: in vivo
- MEASUREMENT CONDITIONS: plasma; human, single oral dose Day 1, fasting, 0.25 mg, individual (N 1)
ASSAY METRIC: Cmax (ng/mL)
Write down the numeric answer in ng/mL and omit the unit.

input: Provide measured Cmax value, entry: CC(=O)Nc1cccc(-n2c(=O)n(C3CC3)c(=O)c3c(Nc4ccc(I)cc4F)n(C)c(=O)c(C)c32)c1
output: 0.34
